molecular target: K. pneumoniae LpxH (KpLpxH) (Klebsiella pneumoniae subsp. pneumoniae (strain ATCC 700721 / MGH 78578)); experiment: LpxE-coupled malachite green LpxH activity assay (KpLpxH inhibition); format: biochemical; conditions: Table 5; read-out: IC50: Average
Assign labels as follows, please: Criterion met for IC50 below 40 nM; Criterion not met for IC50 equal to or exceeding 40 nM.

Determine whether this compound shows IC50 lower than 40 nM (ties excluded): "O=C(CCCCNC(=O)N1CCc2cc(S(=O)(=O)N3CCN(c4cc(Cl)cc(C(F)(F)F)c4)CC3)ccc21)NO"
Criterion met

Determine whether this compound shows IC50 lower than 40 nM (ties excluded): "NC(=O)N1CCc2cc(S(=O)(=O)N3CCN(c4cc(Cl)cc(C(F)(F)F)c4)CC3)ccc21"
Criterion met

Determine whether this compound shows IC50 lower than 40 nM (ties excluded): "O=C(CCCCCCC(=O)Nc1ccc(S(=O)(=O)N2CCN(c3cc(Cl)cc(C(F)(F)F)c3)CC2)cc1)NO"
Criterion met

Determine whether this compound shows IC50 lower than 40 nM (ties excluded): "NCCCCNC(=O)N1CCc2cc(S(=O)(=O)N3CCN(c4cc(C(F)(F)F)cc(Cl)n4)CC3)ccc21"
Criterion met

Determine whether this compound shows IC50 lower than 40 nM (ties excluded): "CC(=O)N1CCc2cc(S(=O)(=O)N3CCN(c4cc(Cl)cc(C(F)(F)F)c4)CC3)ccc21"
Criterion not met
